- Target Desc: UniProt:Q13153
- Sequence (Q13153 whole entry): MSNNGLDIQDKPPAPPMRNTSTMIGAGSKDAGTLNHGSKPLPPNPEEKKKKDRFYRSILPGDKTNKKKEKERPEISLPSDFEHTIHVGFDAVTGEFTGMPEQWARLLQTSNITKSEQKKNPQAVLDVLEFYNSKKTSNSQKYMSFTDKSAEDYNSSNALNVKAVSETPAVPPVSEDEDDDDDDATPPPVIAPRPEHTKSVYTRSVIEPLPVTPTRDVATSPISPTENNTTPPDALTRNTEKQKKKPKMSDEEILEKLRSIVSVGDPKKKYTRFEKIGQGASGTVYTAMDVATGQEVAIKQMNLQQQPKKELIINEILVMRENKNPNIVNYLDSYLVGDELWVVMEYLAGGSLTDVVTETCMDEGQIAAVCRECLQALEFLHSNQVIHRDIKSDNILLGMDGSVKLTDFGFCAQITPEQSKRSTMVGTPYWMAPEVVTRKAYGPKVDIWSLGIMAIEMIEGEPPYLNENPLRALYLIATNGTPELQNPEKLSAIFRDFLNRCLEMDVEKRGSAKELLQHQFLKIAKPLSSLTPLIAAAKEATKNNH
- Procedure Details: PAK1 enzymatic assay (Kinase-Glo Plus / ADP-Glo luminescence)
- Type: biochemical
- Condition Info: tested in triplicate, mean ± SD; 50 µM ATP; read-out: Kinase inhibitory activity (IC50, μM) PAK1
Criterion: IC50 strictly under 6 µM. Met: label 1. Not met: label 0.

| Compound | Label Class |
| --- | --- |
| NC(=O)c1c(NC(=S)NC(=O)c2cccc(C(F)(F)F)c2)sc2c1CCN(C(=O)CCCl)C2 [Compound 7g] | label 1 |
| NC(=O)c1c(NC(=S)NC(=O)c2cccc(C(F)(F)F)c2)sc2c1CCN(C(=O)c1ccc(Cl)cc1)C2 [Compound 7b] | label 0 |
| COc1ccc(C(=O)NC(=S)Nc2sc3c(c2C(N)=O)CCN(C(=O)OC(C)(C)C)C3)cc1 [Compound 5f] | label 0 |
| CC(C)(C)OC(=O)N1CCc2c(sc(NC(=S)NC(=O)c3ccc(F)cc3)c2C(N)=O)C1 [Compound 5h] | label 1 |
| CC(C)C(=O)N1CCc2c(sc(NC(=S)NC(=O)c3cccc(C(F)(F)F)c3)c2C(N)=O)C1 [Compound 7e] | label 1 |
| CC(C)(C)OC(=O)N1CCc2c(sc(NC(=S)NC(=O)c3cccc(Cl)c3)c2C(N)=O)C1 [Compound 5l] | label 1 |
| CC(C)(C)OC(=O)N1CCc2c(sc(NC(=O)c3ccccc3)c2C(N)=O)C1 [2169–1087] | label 0 |
| CC(C)(C)OC(=O)N1CCc2c(sc(NC(=S)NC(=O)c3ccc(Br)cc3)c2C(N)=O)C1 [Compound 5g] | label 0 |
| CC(C)(C)OC(=O)N1CCc2c(sc(NC(=S)NC(=O)c3ccccc3F)c2C(N)=O)C1 [Compound 5i] | label 0 |
| C=C(C)C(=O)N1CCc2c(sc(NC(=S)NC(=O)c3cccc(C(F)(F)F)c3)c2C(N)=O)C1 [Compound 7i] | label 1 |
| Cc1ccccc1C(=O)N1CCc2c(sc(NC(=S)NC(=O)c3cccc(C(F)(F)F)c3)c2C(N)=O)C1 [Compound 7a] | label 0 |
| CC(C)(C)OC(=O)N1CCc2c(sc(NC(=S)NC(=O)C3CCCCC3)c2C(N)=O)C1 [Compound 5p] | label 0 |
| NC(=O)c1c(NC(=S)NC(=O)c2cccc(C(F)(F)F)c2)sc2c1CCN(C(=O)c1ccccc1Cl)C2 [Compound 7c] | label 0 |
| Cc1cc(C)c(C(=O)NC(=S)Nc2sc3c(c2C(N)=O)CCN(C(=O)OC(C)(C)C)C3)c(C)c1 [Compound 5e] | label 0 |
| CC(C)(C)OC(=O)N1CCc2c(sc(NC(=S)NC(=O)Cc3cccs3)c2C(N)=O)C1 [Compound 5q] | label 0 |
| C/C=C/C(=O)N1CCc2c(sc(NC(=S)NC(=O)c3cccc(C(F)(F)F)c3)c2C(N)=O)C1 [Compound 7h] | label 1 |
| CC(C)(C)OC(=O)N1CCc2c(sc(NC(=S)NC(=O)c3ccc(C(F)(F)F)cc3)c2C(N)=O)C1 [Compound 5n] | label 0 |

Reference source for all entries: paper PMC7470115
